measured target: Cathepsin D (Homo sapiens, UniProt P07339)
Sequence (P07339 65-162 limits assumed): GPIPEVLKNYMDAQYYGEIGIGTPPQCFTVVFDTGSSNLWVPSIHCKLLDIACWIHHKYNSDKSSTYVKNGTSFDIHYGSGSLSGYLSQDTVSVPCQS
Sequence (P07339 169-412 limits assumed): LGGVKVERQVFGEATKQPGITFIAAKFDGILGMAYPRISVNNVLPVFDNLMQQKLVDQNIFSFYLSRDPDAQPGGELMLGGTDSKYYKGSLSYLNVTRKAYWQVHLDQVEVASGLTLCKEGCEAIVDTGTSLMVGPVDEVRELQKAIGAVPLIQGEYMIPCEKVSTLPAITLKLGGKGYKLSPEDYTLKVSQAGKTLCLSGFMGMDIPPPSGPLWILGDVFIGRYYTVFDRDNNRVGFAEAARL

>  <molecule>
CCc1cn2c3c(cc(C(=O)N[C@@H](Cc4ccccc4)[C@H](O)CNC4CCCCC4)cc13)N(C)S(=O)(=O)CC2 [BMCL193669 Compound 26]

>  <relation symbol>
=

>  <IC50 / nM>
660

$$$$
>  <molecule>
CCNc1cc(C(=O)N[C@@H](Cc2ccccc2)[C@H](O)CNC2CCCCC2)cc(N2CCCCS2(=O)=O)c1

>  <relation symbol>
=

>  <IC50 / nM>
2340

$$$$
>  <molecule>
CCNc1cc(C(=O)N[C@@H](Cc2ccccc2)[C@H](O)CNC)cc(N2CCCCS2(=O)=O)c1

>  <relation symbol>
>

>  <IC50 / nM>
100000

$$$$

###

measured target: Beta-secretase 2 (Homo sapiens)
Sequence (Q9Y5Z0 whole entry): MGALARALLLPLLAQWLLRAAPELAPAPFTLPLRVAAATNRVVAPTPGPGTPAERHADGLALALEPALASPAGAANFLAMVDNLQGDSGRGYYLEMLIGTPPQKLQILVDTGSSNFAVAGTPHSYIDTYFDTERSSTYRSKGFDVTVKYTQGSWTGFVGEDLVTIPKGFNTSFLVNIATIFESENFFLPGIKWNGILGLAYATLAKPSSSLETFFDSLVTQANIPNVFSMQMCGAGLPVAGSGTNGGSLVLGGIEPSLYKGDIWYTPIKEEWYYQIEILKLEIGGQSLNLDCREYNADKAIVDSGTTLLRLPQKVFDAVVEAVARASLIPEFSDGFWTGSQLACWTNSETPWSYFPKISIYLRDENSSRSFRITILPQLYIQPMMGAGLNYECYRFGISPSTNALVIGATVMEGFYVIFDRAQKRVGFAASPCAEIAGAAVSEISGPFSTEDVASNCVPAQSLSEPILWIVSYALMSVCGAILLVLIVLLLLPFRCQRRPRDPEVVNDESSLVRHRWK
measurement notes: Enzyme Inhibition Assay
experimental setup: pH 4.5; 22 °C
Experimental: Enzyme activity and inhibition were assayed using a fluorescent FAM-[SEVNLDAEFK]-TAMRA substrate. Control reactions with no enzyme were included in each assay. Quantification of substrate cleavage was assessed using an LJL analyst spectrophotometer (485nm excitation, 535nm emission).
property name: IC50 (nM)

>  <compound>
CCc1cn2c3c(cc(C(=O)N[C@@H](Cc4ccccc4)[C@H](O)CNC4CCCCC4)cc13)N(C)S(=O)(=O)CC2 [BMCL193669 Compound 26]

>  <recorded number>
210

$$$$
>  <compound>
CCc1cn2c3c(cc(C(=O)N[C@@H](Cc4ccccc4)[C@H](O)CNC(C)(C)CCCC(C)C)cc13)N(C)S(=O)(=O)CC2

>  <recorded number>
114

$$$$
>  <compound>
CCNc1cc(C(=O)N[C@@H](Cc2ccccc2)[C@H](O)CNC2CCCCC2)cc(N2CCCCS2(=O)=O)c1

>  <recorded number>
4370

$$$$
>  <compound>
CCNc1cc(C(=O)N[C@@H](Cc2ccccc2)[C@H](O)CNC(C)(C)CCCC(C)C)cc(N2CCCCS2(=O)=O)c1

>  <recorded number>
7940

$$$$

###

Hi! I'm sharing some pIC50 results obtained with Beta-secretase 1 (Homo sapiens, UniProt P56817).
Sequence (P56817 whole entry): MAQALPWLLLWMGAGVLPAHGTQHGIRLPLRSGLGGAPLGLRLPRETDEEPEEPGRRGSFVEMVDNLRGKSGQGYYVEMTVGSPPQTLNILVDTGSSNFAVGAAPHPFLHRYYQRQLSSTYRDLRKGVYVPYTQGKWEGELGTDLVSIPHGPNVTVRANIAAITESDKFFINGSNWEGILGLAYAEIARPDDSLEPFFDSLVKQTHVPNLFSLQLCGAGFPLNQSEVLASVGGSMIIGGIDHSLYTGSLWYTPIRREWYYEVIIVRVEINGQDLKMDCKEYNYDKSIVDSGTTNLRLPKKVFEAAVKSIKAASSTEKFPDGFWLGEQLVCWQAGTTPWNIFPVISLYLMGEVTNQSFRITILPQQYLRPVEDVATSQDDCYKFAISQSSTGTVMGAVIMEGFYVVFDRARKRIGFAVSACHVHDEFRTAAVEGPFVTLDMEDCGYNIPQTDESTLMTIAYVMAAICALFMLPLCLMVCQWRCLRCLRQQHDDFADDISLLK
pIC50: −log10 of the molar value.
property name: pIC50

>  <compound>
CCNc1cc(C(=O)N[C@@H](Cc2ccccc2)[C@H](O)CNC2CCCCC2)cc(N2CCCCS2(=O)=O)c1

>  <property name>
pIC50

>  <recorded number>
7.16

$$$$
>  <compound>
CCc1cn2c3c(cc(C(=O)N[C@@H](Cc4ccccc4)[C@H](O)CNC(C)(C)CCCC(C)C)cc13)N(C)S(=O)(=O)CC2

>  <property name>
pIC50

>  <recorded number>
8.30

$$$$
>  <compound>
CCNc1cc(C(=O)N[C@@H](Cc2ccccc2)[C@H](O)CNC)cc(N2CCCCS2(=O)=O)c1

>  <property name>
pIC50

>  <recorded number>
6.85

$$$$
>  <compound>
CCc1cn2c3c(cc(C(=O)N[C@@H](Cc4ccccc4)[C@H](O)CNC4CCCCC4)cc13)N(C)S(=O)(=O)CC2 [BMCL193669 Compound 26]

>  <property name>
pIC50

>  <recorded number>
8.05

$$$$
